For each entry below, report its DC50 value.
Tgt: Human BCL-XL protein (N-terminal HiBiT tagged BCL-XL expressed in HT1080 cells) (Homo sapiens, UniProt Q07817)
Construct: expressed in transfected cells; host or cells: HT-1080 (ATCC CCL-121), stably transduced with lentivirus pLV-UBC-N-HiBiT-BCL-XL-PGK-puro and selected with puromycin
Sequence (Q07817 whole entry): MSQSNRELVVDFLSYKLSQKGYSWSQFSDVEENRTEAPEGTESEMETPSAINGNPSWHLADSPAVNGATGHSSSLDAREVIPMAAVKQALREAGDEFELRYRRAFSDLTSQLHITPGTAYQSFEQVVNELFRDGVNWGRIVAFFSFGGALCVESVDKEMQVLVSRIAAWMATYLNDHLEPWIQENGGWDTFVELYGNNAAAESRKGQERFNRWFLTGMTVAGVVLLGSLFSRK
Experiment Description: HiBiT Based Degradation Assay
Format: cell-based
Measurement Conditions: BCL-XL degradation, HT1080 cells expressing N-HiBiT-BCL-XL, 24 hours incubation, normalized with DMSO control; geometric mean for multiple data points; read-out: EC50 (24 h)

Challenge: Look at this molecule and give its reported DC50. COc1c(NC(=O)CN2CC[C@H](CCCOc3ccc(-c4ccc(N5CCc6cccc(C(=O)Nc7nc8ccccc8s7)c6C5)nc4C(=O)O)c(C)c3)C[C@H]2C)ccc2c(C3CCC(=O)NC3=O)nn(C)c12 (stereo partly drawn) [Compound 210c]
Response given: < 0.01 µM

Challenge: Look at this molecule and give its reported DC50. C[C@H]1C[C@@H](CCCOc2cccc(-c3ccc(N4CCc5cccc(C(=O)Nc6nc7ccccc7s6)c5C4)nc3C(=O)O)c2C(F)(F)F)CCN1CC(=O)Nc1ccc2c(C3CCC(=O)NC3=O)nn(C)c2c1 (stereo partly drawn) [Compound 215b]
Response given: 0.01 to 0.1 µM

Challenge: Look at this molecule and give its reported DC50. COc1c(NC(=O)CN2CCC3(CC2)CC(COc2ccc(-c4ccc(N5CCc6cccc(C(=O)Nc7nc8ccccc8s7)c6C5)nc4C(=O)O)c(C(F)(F)F)c2)C3)ccc2c(C3CCC(=O)NC3=O)nn(C)c12 (stereo not drawn)
Response given: 0.01 to 0.1 µM

----------
Tgt: Human BCL-XL protein (N-terminal HiBiT tagged BCL-XL expressed in HT1080 cells) (Homo sapiens, UniProt Q07817)
Construct: expressed in transfected cells; host or cells: HT-1080 (ATCC CCL-121), stably transduced with lentivirus pLV-UBC-N-HiBiT-BCL-XL-PGK-puro and selected with puromycin
Experiment Description: HiBiT Based Degradation Assay
Format: cell-based
Measurement Conditions: BCL-XL degradation, HT1080 cells expressing N-HiBiT-BCL-XL, 24 hours incubation, normalized with DMSO control; geometric mean for multiple data points; read-out: EC50 (24 h)
Observed Property: DC50

Challenge: Look at this molecule and give its reported DC50. Cc1cc(O[C@@H](C)CCC2CCN(CC(=O)Nc3ccc4c(C5CCC(=O)NC5=O)nn(C)c4n3)CC2)ccc1-c1ccc(N2CCc3cccc(C(=O)Nc4nc5ccccc5s4)c3C2)nc1C(=O)O (single isomer, unassigned) [Compound 225a]
Response given: 10 to 100 nM

Challenge: Look at this molecule and give its reported DC50. Cc1c(OCCCCC2CCN(Cc3nc4cc(C5CCC(=O)NC5=O)ccc4n3C)CC2)cccc1-c1ccc(N2CCc3cccc(C(=O)Nc4nc5ccccc5s4)c3C2)nc1C(=O)O (centres unmarked) [Compound 2002]
Response given: 10 to 100 nM

Challenge: Look at this molecule and give its reported DC50. Cc1cc(OCCC[C@@H]2CCN(CC(=O)Nc3ccc4c(C5CCC(=O)NC5=O)nn(C)c4c3)[C@@H](C)C2)ccc1-c1ccc(N2CCc3cccc(C(=O)Nc4nc5ccccc5s4)c3C2)nc1C(=O)O (some centres unmarked) [Compound 210a]
Response given: 10 to 100 nM

Challenge: Look at this molecule and give its reported DC50. Cc1c(OC2CC3(CCN(CC(=O)Nc4ccc5c(C6CCC(=O)NC6=O)nn(C)c5c4F)CC3)C2)cccc1-c1ccc(N2CCc3cccc(C(=O)Nc4nc5ccccc5s4)c3C2)nc1C(=O)O (centres unmarked) [Compound 190]
Response given: < 10 nM

Challenge: Look at this molecule and give its reported DC50. Cc1c(OCCCC2(O)CCN(CC(=O)Nc3ccc4c(C5CCC(=O)NC5=O)nn(C)c4c3)CC2)cccc1-c1ccc(N2CCc3cccc(C(=O)Nc4nc5ccccc5s4)c3C2)nc1C(=O)O (centres unmarked) [Compound 108]
Response given: 10 to 100 nM
